# TEST TARGET: phospho-FGFR2 (Homo sapiens)
# Construct: endogenous in cells; host or cells: Kato III cells
# Sequence (P21802 22-766 isoform P21802-8 limits assumed): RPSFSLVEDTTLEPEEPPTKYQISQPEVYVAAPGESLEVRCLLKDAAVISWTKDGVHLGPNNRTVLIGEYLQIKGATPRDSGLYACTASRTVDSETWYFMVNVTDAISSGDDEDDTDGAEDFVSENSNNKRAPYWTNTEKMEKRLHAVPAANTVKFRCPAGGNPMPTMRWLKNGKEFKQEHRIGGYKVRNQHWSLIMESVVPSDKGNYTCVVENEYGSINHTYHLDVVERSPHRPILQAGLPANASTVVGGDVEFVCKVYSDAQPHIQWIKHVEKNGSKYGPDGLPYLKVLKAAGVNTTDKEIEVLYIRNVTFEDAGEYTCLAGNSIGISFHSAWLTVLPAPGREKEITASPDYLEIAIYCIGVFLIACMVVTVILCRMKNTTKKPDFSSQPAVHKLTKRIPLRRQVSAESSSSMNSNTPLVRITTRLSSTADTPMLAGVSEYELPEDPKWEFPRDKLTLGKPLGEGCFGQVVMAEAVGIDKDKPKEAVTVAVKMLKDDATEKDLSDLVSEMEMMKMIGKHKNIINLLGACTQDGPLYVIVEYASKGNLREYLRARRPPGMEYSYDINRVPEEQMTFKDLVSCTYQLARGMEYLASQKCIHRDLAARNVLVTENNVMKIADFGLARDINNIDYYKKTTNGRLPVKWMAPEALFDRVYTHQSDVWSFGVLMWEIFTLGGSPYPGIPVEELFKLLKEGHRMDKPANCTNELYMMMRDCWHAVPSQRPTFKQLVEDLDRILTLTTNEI
# ASSAY REMARKS: phospho-FGFR ELISA on Kato III cells
# Assay type: cell-based
# RECORDED CONDITIONS: read-out: EC50 (nM) P-FGFR2, Kato III cells
This section presents molecules with their documented EC50 values.

Solved entries (count: 4):
Cc1cc2c(F)c(Oc3ncnc(Nc4cc(C5CC5)n[nH]4)c3F)ccc2[nH]1 [Compound 32] : > 500 nM
COc1cc(CCc2cc(Nc3cc(Oc4ccc5[nH]c(C)cc5c4F)ncn3)n[nH]2)cc(OC)c1 [Example 22] : > 100 nM
Cc1cc2c(F)c(Oc3cc(N4CCN(c5ccc(N)cc5F)CC4)ncn3)ccc2[nH]1 [Example 10] : > 100 nM
Cc1cc2c(F)c(Oc3cc(Nc4cc(-c5ccccn5)[nH]n4)ncn3)ccc2[nH]1 [Example 6] : > 100 nM

I'd like to know its EC50. The molecule in question is Cc1cc2c(F)c(Oc3cc(Nc4cc(C5CC5)[nH]n4)ncn3)ccc2[nH]1 [Example 16]
> 100 nM

Requested field: EC50. Item: Cc1cc2c(F)c(Oc3cc(Nc4ccc(N5CCN(C)CC5)cn4)ncn3)ccc2[nH]1 [Example 15]
36 nM

Suppose we examine the molecule CCN1CCN(c2ccc(Nc3cc(Oc4cc(F)c5[nH]c(C)cc5c4F)ncn3)cc2)CC1 [Compound 49] ; what EC50 value has been reported?
75 nM

// returns reported EC50 for input Cc1cc2c(F)c(Oc3cc(Nc4ccc(N5CCNCC5)cc4)ncn3)ccc2[nH]1 [Example 11]
96 nM
